Ref: patent US12233161B1

- Tested on: mice
- MEASUREMENT_NOTES: In vivo delivery of FLuc-mRNA lipid nanoparticles in mice, in vivo imaging (IVIS)
- EXPERIMENTAL_SETUP: IV, organ not given; DMG-PEG2000:DSPC:Chol:compound 1.40:11.15:38.95:48.50, N/P 20; Fluc-mRNA
Kindly supply the reported IVIS values for the records listed here.

* CCCCCCCCCCCCOC(=O)C(O)CN(CCCCCCCN(CC(O)C(=O)OCCCCCCCCCCCC)CC(O)C(=O)OCCCCCCCCCCCC)CC(O)C(=O)OCCCCCCCCCCCC (stereo not drawn) [Compound L0322] | 2.72E+05
* CCCCCCCCCCOC(=O)C(O)CN(CCOCCN(CC(O)C(=O)OCCCCCCCCCC)CC(O)C(=O)OCCCCCCCCCC)CC(O)C(=O)OCCCCCCCCCC (stereo not drawn) [Compound L0314] | 2.35E+05

Now, please, on to the next molecule.
Given the molecule CCCCCCOC(C)OCCCCCCOC(=O)C(O)CN(C)CCN(C)CCN(C)CC(O)C(=O)OCCCCCCOC(C)OCCCCCC (stereo not drawn) [Compound L0300] , what is its reported IVIS? 7.12E+05
